B1: CDS2 (parent)
chain: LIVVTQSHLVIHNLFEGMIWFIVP

Variants of: B1
method description: protein stability index of a GFP-peptide fusion (GPS, HEK-293T) (PSI 1-6); higher = more stable;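 note: lentivirally expressed fusions sorted by FACS into six bins by GFP to DsRed ratio, PSI derived from sequencing read proportions per bin multiplied by bin number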
setup conditions: c terminus: a fixed tail appended
In this section we review reported protein stability index values for a set of variants.
assay readout: protein stability index

variant_designation=M18S obs_value=2.98
variant_designation=W20V obs_value=3.06
variant_designation=N13E obs_value=2.93
variant_designation=I22K obs_value=3.07
